Assay: Population pharmacokinetic analysis of polymyxin B in renal transplant patients (plasma, HPLC-MS/MS, Phoenix NLME)
Assay type: in vivo, human
Settings: human, intravenous q 12 h, one-compartment PPK model, 151 plasma samples from 50 patients, HPLC-MS/MS, read-out: V, final model estimate
Positions of bridges follow the written chain, without caps; N, C: chain ends. Non-standard residues stand in square brackets, D forms with d. Residues, ends and D or L forms follow the SMILES beside them. *: point of attachment. X1 = CC[C@H](C)CCCCC(=O)*; Dab = NCC[C@H](N)C(=O)O
readout-kind: Vd (L)
# number only, unit L dropped from output

## Input Give reported Vd value for CC[C@H](C)CCCCC(=O)N[C@@H](CCN)C(=O)N[C@H](C(=O)N[C@@H](CCN)C(=O)N[C@H]1CCNC(=O)[C@H]([C@@H](C)O)NC(=O)[C@H](CCN)NC(=O)[C@H](CCN)NC(=O)[C@H](CC(C)C)NC(=O)[C@@H](Cc2ccccc2)NC(=O)[C@H](CCN)NC1=O)[C@@H](C)O [polymyxin B] (X1-[Dab]T[Dab][Dab][Dab][dF]L[Dab][Dab]T; lactam 4-C)
## Output 12.1
